# target desc: rho transcription termination factor (Escherichia coli, UniProt P0AG30)
# condition context: Mg^2+-free, relative to Mg^2+
Kindly note that classification relies on % activity (Vmax or Vpeak) with these boundaries: low = under 6%, intermediate = from 6% up to 60%, high = 60% and over

>  <compound>
[Mg+2] [Mg^2+]

>  <group>
high

$$$$
>  <compound>
[Ca+2] [Ca^2+]

>  <group>
intermediate

$$$$
>  <compound>
[Sr+2] [Sr^2+]

>  <group>
low

$$$$
>  <compound>
[Be+2].[Cl-].[Cl-] [Be^2+]

>  <group>
low

$$$$
>  <compound>
[Co+2] [Co^2+]

>  <group>
high

$$$$
>  <compound>
[Cl][Mn][Cl] [Mn^2+]

>  <group>
high

$$$$
>  <compound>
[Cu+2] [Cu^2+]

>  <group>
intermediate

$$$$
>  <compound>
[Cl-].[Cl-].[Zn+2] [Zn^2+]

>  <group>
high

$$$$
>  <compound>
[Cl][Ni][Cl] [Ni^2+]

>  <group>
intermediate

$$$$
>  <compound>
[Cd+2] [Cd^2+]

>  <group>
intermediate

$$$$

* * *

# target desc: rho transcription termination factor (Escherichia coli)
# condition context: read-out: I50, rho poly(C)-dependent ATP hydrolysis; 10 mM MgCl2
measurement label: IC50 (µM)

>  <molecule>
[Cl-].[Cl-].[Zn+2] [Zn^2+]

>  <measurement label>
IC50

>  <value units>
µM

>  <quantitative readout>
4000

$$$$
>  <molecule>
[Be+2].[Cl-].[Cl-] [Be^2+]

>  <measurement label>
IC50

>  <value units>
µM

>  <quantitative readout>
63

$$$$

* * *

Readings of % efficiency (Vmax/KM or Vpeak/KM) for the listed compounds
# target desc: UniProtKB P0AG30
# condition context: Mg^2+-free, relative to Mg^2+

>  <cpd smiles>
[Mg+2]

>  <% efficiency (Vmax/KM or Vpeak/KM) [%]>
100

$$$$
>  <cpd smiles>
[Cu+2]

>  <% efficiency (Vmax/KM or Vpeak/KM) [%]>
39

$$$$
>  <cpd smiles>
[Cl][Mn][Cl]

>  <% efficiency (Vmax/KM or Vpeak/KM) [%]>
89

$$$$
>  <cpd smiles>
[Ca+2]

>  <% efficiency (Vmax/KM or Vpeak/KM) [%]>
74

$$$$
>  <cpd smiles>
[Cd+2]

>  <% efficiency (Vmax/KM or Vpeak/KM) [%]>
20

$$$$
>  <cpd smiles>
[Cl][Ni][Cl]

>  <% efficiency (Vmax/KM or Vpeak/KM) [%]>
29

$$$$
>  <cpd smiles>
[Co+2]

>  <% efficiency (Vmax/KM or Vpeak/KM) [%]>
61

$$$$
>  <cpd smiles>
[Hg+2]

>  <% efficiency (Vmax/KM or Vpeak/KM) [%]>
29

$$$$
>  <cpd smiles>
[Cl-].[Cl-].[Zn+2]

>  <% efficiency (Vmax/KM or Vpeak/KM) [%]>
51

$$$$
